- ASSAY METHOD TEXT: Maximum plasma concentration upon p.o. dose of 10 mg/kg in rats
- Type: ADME, organism-based
- Set-up: dose 10 mg/kg, route oral
- MEASUREMENT CONTEXT: rat, po
RECORDED ENDPOINT: Cmax

test_smiles=Cc1c(CC(=O)O)c2cc(F)ccc2n1S(=O)(=O)c1ccc(S(C)(=O)=O)cc1 result="332 ng/mL"

* * *

- TARGET SYSTEM: Prostaglandin D2 receptor 2 (Homo sapiens)
- Sequence (Q9Y5Y4 whole entry): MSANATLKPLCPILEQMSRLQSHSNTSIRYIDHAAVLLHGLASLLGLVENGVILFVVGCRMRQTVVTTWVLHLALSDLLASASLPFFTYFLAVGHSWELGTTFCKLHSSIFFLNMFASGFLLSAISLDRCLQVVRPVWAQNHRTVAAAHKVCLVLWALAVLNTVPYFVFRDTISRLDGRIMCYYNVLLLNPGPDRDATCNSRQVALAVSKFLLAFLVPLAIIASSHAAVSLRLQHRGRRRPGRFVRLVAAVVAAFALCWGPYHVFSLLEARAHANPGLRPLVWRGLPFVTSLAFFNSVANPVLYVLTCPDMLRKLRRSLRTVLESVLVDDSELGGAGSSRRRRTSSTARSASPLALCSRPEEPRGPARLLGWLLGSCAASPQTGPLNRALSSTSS
- ASSAY METHOD TEXT: In vitro agonist potency towards human CRTH2 receptor expressed in CHO cells; range 15 to 50 nM
pEC50: −log10 of the molar value.
RECORDED ENDPOINT: pEC50

test_smiles=COc1ccc2c(c1)c(CC(=O)O)c(C)n2C(=O)c1ccc(Cl)cc1 quantitative_readout=7.30

* * *

Readings of pKi for the listed compounds
- TARGET SYSTEM: Prostaglandin D2 receptor 2 (Homo sapiens)
- ASSAY METHOD TEXT: Binding affinity towards human CRTH2 receptor expressed in CHO cells
- Format: cell-based
pKi: −log10 of the molar value.
RECORDED ENDPOINT: pKi

compound=Cc1c(CC(=O)O)c2cc(F)ccc2n1S(=O)(=O)c1cccc(F)c1 quantitative_readout=6.65
compound=Cc1c(CC(=O)O)c2cc(F)ccc2n1S(=O)(=O)c1ccccc1 quantitative_readout=6.60
compound=Cc1c(CC(=O)O)c2cc(F)ccc2n1S(=O)(=O)c1ccc(Cl)cc1 quantitative_readout=7.54
compound=Cc1c(CC(=O)O)c2cc(F)ccc2n1S(=O)(=O)c1ccc(S(C)(=O)=O)cc1 quantitative_readout=7.17
compound=O=C(O)C[C@@H]1CCn2c1c(Sc1ccc(Cl)cc1)c1ccc(F)cc12 quantitative_readout=9.10
compound=CCCCS(=O)(=O)n1c(C)c(CC(=O)O)c2cc(F)ccc21 quantitative_readout=6.20
compound=COc1ccc(S(=O)(=O)n2c(C)c(CC(=O)O)c3cc(F)ccc32)cc1 quantitative_readout=6.52
compound=Cc1ccc(S(=O)(=O)n2c(C)c(CC(=O)O)c3cc(F)ccc32)cc1 quantitative_readout=6.34
compound=Cc1c(CC(=O)O)c2cc(F)ccc2n1S(=O)(=O)c1cc(Cl)ccc1Cl quantitative_readout=7.72
compound=Cc1nc(S(=O)(=O)n2c(C)c(CC(=O)O)c3cc(F)ccc32)cn1C quantitative_readout=5.53
compound=Cc1c(CC(=O)O)c2cc(F)ccc2n1S(=O)(=O)c1ccc(F)cc1 quantitative_readout=7.15
compound="CSc1ccc(C=C2C(C)=C(CC(=O)O)c3cc(F)ccc32)cc1 [SULINDAC SULFIDE]" quantitative_readout=5.46

* * *

- TARGET SYSTEM: Prostaglandin D2 receptor (Homo sapiens)
- Sequence (Q13258 whole entry): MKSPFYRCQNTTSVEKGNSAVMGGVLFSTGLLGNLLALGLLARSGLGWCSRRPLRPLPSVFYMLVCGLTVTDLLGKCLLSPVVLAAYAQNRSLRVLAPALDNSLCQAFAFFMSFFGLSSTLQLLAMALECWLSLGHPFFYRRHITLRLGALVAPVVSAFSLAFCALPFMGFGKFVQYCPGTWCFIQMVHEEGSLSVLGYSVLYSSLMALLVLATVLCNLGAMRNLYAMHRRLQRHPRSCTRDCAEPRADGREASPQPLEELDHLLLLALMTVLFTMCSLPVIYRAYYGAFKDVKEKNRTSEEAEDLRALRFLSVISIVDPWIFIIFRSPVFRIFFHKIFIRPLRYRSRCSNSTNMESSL
- ASSAY METHOD TEXT: Binding affinity towards human DP receptor expressed in CHO cells
Readings of Ki for the listed molecules
RECORDED ENDPOINT: Ki

test_smiles=COc1ccc(S(=O)(=O)n2c(C)c(CC(=O)O)c3cc(F)ccc32)cc1 result="7.71 µM"
test_smiles=Cc1c(CC(=O)O)c2cc(F)ccc2n1S(=O)(=O)c1cc(Cl)ccc1Cl result="1.87 µM"
test_smiles=Cc1c(CC(=O)O)c2cc(F)ccc2n1S(=O)(=O)c1ccc(Cl)cc1 result="8.46 µM"
test_smiles=Cc1c(CC(=O)O)c2cc(F)ccc2n1S(=O)(=O)c1cccc(F)c1 result="6.89 µM"
test_smiles=Cc1ccc(S(=O)(=O)n2c(C)c(CC(=O)O)c3cc(F)ccc32)cc1 result="> 10 µM"
test_smiles=Cc1c(CC(=O)O)c2cc(F)ccc2n1S(=O)(=O)c1ccc(S(C)(=O)=O)cc1 result="> 10 µM"
test_smiles=Cc1c(CC(=O)O)c2cc(F)ccc2n1S(=O)(=O)c1ccc(F)cc1 result="> 10 µM"
test_smiles=CCCCS(=O)(=O)n1c(C)c(CC(=O)O)c2cc(F)ccc21 result="> 10 µM"
test_smiles=Cc1c(CC(=O)O)c2cc(F)ccc2n1S(=O)(=O)c1ccccc1 result="4.86 µM"
test_smiles=Cc1nc(S(=O)(=O)n2c(C)c(CC(=O)O)c3cc(F)ccc32)cn1C result="> 10 µM"

Measured values drawn from ChEMBL document CHEMBL1141097 for this set.
